- System: HeLa cells
- Experiment: Effect of RE-1 analogues on cytotoxicity induced by UCN, UCP (MTT, PI staining)
- Assay type: cell-based
- Assay context: 1 mg/mL, 24 hr
Measured quantity: inhibitory effect of coating on cytotoxicity induced by UCN and UCP

{"Substance": "ACTARSPWICG [RE-1, RE-0 with terminal amino acids A and G added]", "Measured result": "RE-1>RE-3>RE-5"}
{"Substance": "ACAARSPWICG [RE-5, RE-1 3T→A]", "Measured result": "RE-1>RE-3>RE-5"}
{"Substance": "ACWPATRISCG [RE-3, order of 7 middle amino acids of RE-1 disrupted]", "Measured result": "RE-1>RE-3>RE-5"}

====

- Experiment: Competitive inhibition of REOB-1 phage binding to Nd2O3 by polypeptides (IC50)
- Assay context: 100 μg Nd2O3, REOB-1 phages at a titer of 108, 2 hr incubation; read-out: IC50 (μM)* of polypeptides competitively inhibiting the binding of REOB-1 phages to Nd2O3 nanoparticles
- Description: 100 μg Nd2O3 was mixed with the polypeptides, RE-1, AP-1, RE-2, RE-3, RE-4, RE-5, RE-6, RE-7, RE-8, RE-9, RE-10, etc., respectively. To the mixture, REOB-1 phages at a titer of 108 were added. After 2 hr of incubation, the number of REOB-1 phages binding to Nd2O3 was measured. IC50 value indicated the relative activity of various polypeptides competitively inhibiting the binding of REOB-1 phages to Nd2O3 nanoparticles. The polypeptide RE-1 and its analogues had different binding ability to Nd2O3.
Ends that are not written are not given here.
Criterion: IC50 strictly under 80 µM. Met: Condition met. Not met: Condition not met.

{"Substance": "AATARSPWICG [RE-4, RE-1 2C→A]", "Assigned category": "Condition not met"}
{"Substance": "ACAARSPWICG [RE-5, RE-1 3T→A]", "Assigned category": "Condition not met"}
{"Substance": "ACTARSPWACG [RE-10, RE-1 9I→A]", "Assigned category": "Condition met"}
{"Substance": "TARSPWI [RE-2, TARSPWI]", "Assigned category": "Condition not met"}
{"Substance": "ACWPATRISCG [RE-3, order of 7 middle amino acids of RE-1 disrupted]", "Assigned category": "Condition met"}
{"Substance": "ACTARAPWICG [RE-7, RE-1 65→A as printed]", "Assigned category": "Condition not met"}
{"Substance": "ACTARSAWICG [RE-8, RE-1 7P→A]", "Assigned category": "Condition not met"}
{"Substance": "ACTARSPAICG [RE-9, RE-1 8W→A]", "Assigned category": "Condition not met"}
{"Substance": "ACTARSPWICG [RE-1, RE-0 with terminal amino acids A and G added]", "Assigned category": "Condition met"}
{"Substance": "ACNATLPHQCG [AP-1, same terminal amino acids but irrelevant amino acids therebetween, reference compound]", "Assigned category": "Condition not met"}
